# protocol-details: Measurement of logP values by HPLC on reversed phase columns (EEC directive 79/831 Annex V.A8)
# condition-info: HPLC reversed phase, pH 2,7, 0.1% formic acid in water / acetonitrile gradient
readout: logp
Just the number, please, no unit after it.

Supply recorded logp for Cn1nnnc1C(=NOCc1cccc(N)n1)c1cccc(OC(F)(F)F)c1 [Example 5] here.
1.69

Return the recorded logp value; entry: C=CCCOC(=O)Nc1nc(CON=C(c2cccc(SC)c2)c2nnnn2C)cs1 [Example 21]
3.64

Determine from records and report logp for C#CCCOC(=O)Nc1cccc(CON=C(c2cccc(N(C)C)c2)c2nnnn2C)n1 [Example 23]
3.21

Look up and state reported logp for CC#CCOC(=O)Nc1cccc(CON=C(c2cccc(COC)c2)c2nnnn2C)n1 [Example 33]
3.21

Check the records and state logp for CON(C)C(=O)Nc1cccc(CON=C(c2cccc(N(C)C)c2)c2nnnn2C)n1 [Example 31]
2.71

Dear colleague, please send me the reported logp for CCCCCOC(=O)Nc1cccc(CON=C(c2cccc(COC)c2)c2nnnn2C)n1 [Example 38] when you can.
4.18

Assign logp to the following record: C=CCCOC(=O)Nc1cccc(CON=C(c2cccc(N(C)C)c2)c2nnnn2C)n1 [Example 24]
3.64

Output logp of C=CCCOC(=O)Nc1cccc(CON=C(c2cccc(OC(F)(F)F)c2)c2nnnn2C)n1 [Example 8]
4.2
